assay: Plasma pharmacokinetics of 10 WDD components after gavage of WDD (LC-MS/MS, Phoenix NCA and compartment model); format: in vivo, SD rats; conditions: chosen by AIC, Phoenix Model module, rats given WDD
readout-type: Model (optimal PK compartment model)

Please review the following examples before continuing.
| smi | Model (optimal PK compartment model) |
| --- | --- |
| COc1ccc([C@@H]2CC(=O)c3c(O)cc(O[C@@H]4O[C@H](CO[C@@H]5O[C@@H](C)[C@H](O)[C@@H](O)[C@H]5O)[C@@H](O)[C@H](O)[C@H]4O)cc3O2)cc1O | One-Compartment Model |
| C[n+]1cccc(C(=O)[O-])c1 | Two-Compartment Model |
| O=C1C[C@@H](c2ccc(O)cc2)Oc2cc(O)cc(O)c21 | One-Compartment Model |
| COc1ccc([C@@H]2CC(=O)c3c(O)cc(O)cc3O2)cc1O | One-Compartment Model |
| C[C@@H]1O[C@@H](O[C@H]2[C@H](Oc3cc(O)c4c(c3)O[C@H](c3ccc(O)cc3)CC4=O)O[C@H](CO)[C@@H](O)[C@@H]2O)[C@H](O)[C@H](O)[C@H]1O | Two-Compartment Model |
| COc1ccc(-c2cc(=O)c3c(OC)c(OC)c(OC)c(OC)c3o2)cc1 | Two-Compartment Model |

Incoming: Give the measured Model (optimal PK compartment model) of O=c1c(O)c(-c2ccc(O)c(O)c2)oc2cc(O)cc(O)c12 .
Outgoing: Two-Compartment Model

Incoming: Return reported Model (optimal PK compartment model); argument: CC1(C)[C@@H](O[C@H]2O[C@H](C(=O)O)[C@@H](O)[C@H](O)[C@H]2O[C@@H]2O[C@H](C(=O)O)[C@@H](O)[C@H](O)[C@H]2O)CC[C@]2(C)[C@H]3C(=O)C=C4[C@@H]5C[C@@](C)(C(=O)O)CC[C@]5(C)CC[C@@]4(C)[C@]3(C)CC[C@@H]12
Outgoing: One-Compartment Model

----------
assay: Plasma pharmacokinetics of 10 WDD components after gavage of WDD (LC-MS/MS, Phoenix NCA and compartment model); format: in vivo, SD rats; conditions: Sprague-Dawley, po; HTG: WDD 6.6 g/100 g by gavage, hyperlipidemia rat plasma, non-compartment, n = 6
readout-type: Cmax (ng/mL)
The answer is to be given in ng/mL; state only the numeric part.

Check out these entries, answers already filled in.
| smi | readout-type | numeric-result |
| --- | --- | --- |
| COc1ccc([C@@H]2CC(=O)c3c(O)cc(O)cc3O2)cc1O | Cmax | 607 |
| C[C@@H]1O[C@@H](O[C@H]2[C@H](Oc3cc(O)c4c(c3)O[C@H](c3ccc(O)cc3)CC4=O)O[C@H](CO)[C@@H](O)[C@@H]2O)[C@H](O)[C@H](O)[C@H]1O | Cmax | 575 |

Turning now to a further compound:
Incoming: Consider the compound shown here: CC1(C)[C@@H](O)CC[C@]2(C)[C@H]3C(=O)C=C4[C@@H]5C[C@@](C)(C(=O)O)CC[C@]5(C)CC[C@@]4(C)[C@]3(C)CC[C@@H]12 What is its recorded Cmax?
Outgoing: 3280

----------
test: Plasma pharmacokinetics of 10 WDD components after gavage of WDD (LC-MS/MS, Phoenix NCA and compartment model); assay type: in vivo, SD rats; details: Sprague-Dawley, po; HTG: WDD 6.6 g/100 g by gavage, hyperlipidemia rat plasma, non-compartment, n = 6
readout-type: Cmax (ng/mL)
Value expressed in ng/mL; do not type the unit.

Incoming: Entry COc1ccc([C@@H]2CC(=O)c3c(O)cc(O[C@@H]4O[C@H](CO[C@@H]5O[C@@H](C)[C@H](O)[C@@H](O)[C@H]5O)[C@@H](O)[C@H](O)[C@H]4O)cc3O2)cc1O [Hesperidin] has what Cmax?
Outgoing: 194

Incoming: Data request, read-out Cmax, for CC1(C)[C@@H](O[C@H]2O[C@H](C(=O)O)[C@@H](O)[C@H](O)[C@H]2O[C@@H]2O[C@H](C(=O)O)[C@@H](O)[C@H](O)[C@H]2O)CC[C@]2(C)[C@H]3C(=O)C=C4[C@@H]5C[C@@](C)(C(=O)O)CC[C@]5(C)CC[C@@]4(C)[C@]3(C)CC[C@@H]12 [Glycyrrhizic acid]
Outgoing: 45.1

Incoming: Can you share its Cmax? I mean this compound: C[n+]1cccc(C(=O)[O-])c1 [Trigonelline]
Outgoing: 537

Cited source: paper PMC10844532
